system: R275C; assay: modulators of BK channel variants, profiling panel, selectivity assay, cell-based, U2OS BacMam, thallium flux, beta subunits (AID 1259406); settings: at 30 µM;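 note: initial slope of Thallos dye fluorescence rise after thallium is added; log ratio against the mean of 0.3% DMSO vehicle wells on the same plate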
measured_endpoint: log fold change Tl+ flux
Enter the number alone.

[[record]]
molecule = "NC(=O)OCCCc1ccccc1"
experimental_value = -0.0501


Short answer for COc1ccc2[nH]cc(C3=CCNCC3)c2c1 : log fold change Tl+ flux was -0.00261

Short answer for C[C@]12CC[C@H]3[C@@H](CCC4=CC(=O)CC[C@@H]43)[C@@H]1CC[C@@H]2O : log fold change Tl+ flux was -0.0315

Short answer for CC1CCC[C@H](O)CCCCCc2cc(O)cc(O)c2C(=O)O1 (stereo partly drawn) : log fold change Tl+ flux was -0.00393

Short answer for CCC1(c2ccc(N)cc2)CCC(=O)NC1=O (stereo not drawn) : log fold change Tl+ flux was 0.0191

Short answer for CC(O)(CS(=O)(=O)c1ccc(F)cc1)C(=O)Nc1ccc(C#N)c(C(F)(F)F)c1 (stereo not drawn) : log fold change Tl+ flux was -0.0123

Short answer for C[C@]12CC(=CO)C(=O)C[C@@H]1CC[C@@H]1[C@@H]2CC[C@@]2(C)[C@H]1CC[C@]2(C)O : log fold change Tl+ flux was 0.0626

###

assay: suppressors of polyQ aggregation in yeast, 75Q-TubU reporter (AID 1593); settings: Yeast 75Q polyglutamine aggregation reporter
score strictly under 1 means rule met; at 1 or over means rule not met.

Does the reported score of CC(C)=CCCC1(C)C=Cc2c(O)c3c(c(CC=C(C)C)c2O1)OC12C(=CC4CC1C(C)(C)OC2(C/C=C(/C)C(=O)O)C4=O)C3=O (stereo not given) stay below 1?
rule met

Does the reported score of CNC(C)Cc1ccccc1 (stereo not given) stay below 1?
rule not met

Does the reported score of CC1[C@H](C)OC(=O)CC(O)CC(O)CC(O)CCC(O)C(O)C[C@]2(O)CC(O)C(C(=O)O)C(CC(OC3O[C@H](C)[C@@H](O)[C@H](N)[C@@H]3O)/C=C/C=C/C=C/C=C/CC/C=C/C=C/[C@H](C)[C@H]1O)O2 (stereo not given in full) stay below 1?
rule met

###

assay: inhibition of endothelial tube formation, primary screen, imaging, VEGF stimulated, CD31 staining, tube area, NPC library (AID 1117340); settings: VEGF-stimulated ADSC/ECFC co-culture, at 10 µM, stronger effect = higher value
Active and inactive are the calls of the source.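 How the source made its calls: active means compound that reduces growth-factor-driven endothelial tube area in a mixed cell culture, no cutoff stated; inactive means the rest.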
measured_endpoint: tube area decrease

[[record]]
cpd_smiles = "CC[C@]1(O)CC[C@H]2[C@@H]3CCC4=CCCC[C@@H]4[C@H]3CC[C@@]21C"
measured_endpoint = "tube area decrease"
experimental_value = "66.4% (active)"


Short answer for c1ccc(C2CC2)c(OCC2=NCCN2)c1 : tube area decrease was -3.7% (inactive)

Short answer for CN1CCN(C(=O)O[C@H]2c3nccnc3C(=O)N2c2ccc(Cl)cn2)CC1 : tube area decrease was -7.8% (inactive)

###

assay: sensitizers of A549 cells to miR-34 induction, primary screen, imaging, A549 dox-inducible miR-34, nuclei and caspase counts (AID 1347080); settings: A549 miR-34 inducible, Hoechst nuclei count, 48 h; stronger effect = lower value
molecules and their reported fold change
Enter the number alone.

Field: example entries. Status: answers known.
[[record]]
molecule = "O=C(O)c1ccccc1-c1c2cc(Br)c(=O)cc-2oc2[c]([Hg])c(O)c(Br)cc12"
measured_endpoint = "fold change"
experimental_value = 0.908

[[record]]
molecule = "COP(=S)(OC)Oc1ccc(SC)c(C)c1"
measured_endpoint = "fold change"
experimental_value = 0.917

[[record]]
molecule = "COc1cccc([C@@]2(O)CCCCC2CN(C)C)c1 (some centres undefined)"
measured_endpoint = "fold change"
experimental_value = 0.881


As a next step, examine the molecule that follows.
Short answer for CCOC(=O)CC(SP(=S)(OC)OC)C(=O)OCC (centres undefined) : fold change was 0.857
